quantityName: melting point

As a guide, the following entries are already answered.
Nc1c(-c2ccc(C(F)(F)F)cc2F)nnn1-c1ccc(O)cc1	176.2 to 177.5 °C
COc1ccc(-n2nnc(-c3ccc(Cl)cc3C(F)(F)F)c2N)cc1	159.2 to 160.2 °C
Nc1c(-c2ccc(OC(F)(F)F)cc2)nnn1-c1ccc(C(F)(F)F)cc1F	134.2 to 134.9 °C
COc1ccc(-c2nnn(-c3ccc(Cl)cc3Cl)c2N)cc1	149.2 to 150.7 °C
COc1ccc(Cl)cc1-c1nnn(-c2ccc(C(F)(F)F)cc2Cl)c1N	152.8 to 153.3 °C

Shifting focus to the molecule that follows.
*Q* Give a short answer stating reported melting point for `COc1ccc(Cl)cc1-c1nnn(-c2ccc(Cl)cc2Cl)c1N` .
*A* 153.5 to 154.7 °C

Sourced from patent US8110588B2
